study.target: human p38 MAP kinase (Homo sapiens, UniProt Q16539)
Construct: FLAG (N)
Sequence (Q16539 whole entry): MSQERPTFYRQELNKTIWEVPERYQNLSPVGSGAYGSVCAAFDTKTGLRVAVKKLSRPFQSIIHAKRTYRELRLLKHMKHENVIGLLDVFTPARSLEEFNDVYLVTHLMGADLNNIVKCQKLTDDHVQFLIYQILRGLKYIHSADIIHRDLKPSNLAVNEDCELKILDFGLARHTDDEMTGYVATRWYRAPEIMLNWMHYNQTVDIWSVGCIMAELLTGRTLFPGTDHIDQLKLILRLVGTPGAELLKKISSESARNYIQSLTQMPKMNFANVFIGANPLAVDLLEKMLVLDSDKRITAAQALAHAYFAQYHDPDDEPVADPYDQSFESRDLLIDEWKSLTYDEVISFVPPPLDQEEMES
run.description: Measurement of the enzyme inhibitory activity of active form p38 MAP kinase (32P uptake into Myelin Basic Protein), Reference Example C1
test.settings: concentration inhibiting uptake of 32P into acid insoluble fraction (Myelin Basic Protein) by 50%, Table 45
parameter.measured: IC50

> print(dat)
                          smiles.input                              study.target  recorded.value
1  CNc1nc(-c2ccc(Cl)cc2)c(-c2ccncc2)s1  human p38 MAP kinase (Homo sapiens, UniProt Q16539)           26 nM
2       Nc1nc(-c2ccccc2)c(-c2ccncc2)s1  human p38 MAP kinase (Homo sapiens, UniProt Q16539)           81 nM
3  CNc1nc(-c2ccc(OC)cc2)c(-c2ccncc2)s1  human p38 MAP kinase (Homo sapiens, UniProt Q16539)           60 nM
4     COc1ccc(-c2nc(N)sc2-c2ccncc2)cc1  human p38 MAP kinase (Homo sapiens, UniProt Q16539)           86 nM

----------
parameter.measured: melting point

> print(dat)
                                   compound  recorded.value
1  Fc1ccc(-c2nc(-c3ccccc3)sc2-c2ccncc2)cc1 [44-1]   135 to 137 °C
2  Cc1cccc(-c2nc(-c3ccc(S(C)(=O)=O)cc3)sc2-c2ccnc(S(=O)(=O)c3ccccc3)c2)c1 [Reference Example D 28]     90 to 91 °C
3  CNc1nc(-c2ccc(OC)cc2)c(-c2cccnc2)s1 [Reference Example A 9]   158 to 159 °C
4  COc1ccc(-c2nc(N)sc2-c2cccnc2)cc1 [Reference Example A 8]   265 to 266 °C
5       COc1ccc(-c2nc(N)sc2-c2cccnc2)cc1.Cl   145 to 150 °C
